Assay: qHTS RealTime-Glo MT Cell Viability Assay in HEK293 cells - 8 hour (AID 1224887); note: top concentration of the series differs between compounds; nearly all actives have a fitted effect of over 50% in size
Conditions: RealTime-Glo luminescence; series mostly up to 76.8 µM
Excerpt: U.S. Tox21 Program National Center for Advancing Translational Sciences [NCATS] NIH Chemical Genomics Center [NCGC] U.S. Environmental Protection Agency [EPA] National Institutes of Environmental Health Sciences [NIEHS] National Toxicology Program [NTP] U.S. Food and Drug Administration [FDA] Tox21 Assay Overview: Measure of cell viability is critical in the cell-base assay. Analysis of cell viability is necessary for the characterization of cell responses to cytotoxic drugs and environmental stress. […]
Results filed as inconclusive are left out. Calls of active or inactive are those of the source. Calls come from the whole dose curve; as a rule, active = well fitted cell-killing curve with a large enough effect in the repeat runs; inconclusive = weak or mixed curves, or effect the other way; inactive = flat fitted curve, though single readings scatter.
property: outcome

See these solved cases before continuing.
INSERT INTO measurements (entry_smiles, property, assay_result) VALUES
  ('C[C@]12C[C@H](O)[C@H]3[C@@H](CCC4=CC(=O)CC[C@@]43C)[C@@H]1CC[C@@H]2C(=O)CO', 'outcome', 'inactive'),
  ('COc1ccc(O)cc1', 'outcome', 'inactive'),
  ('C/C=C/c1ccc(O)c(OC)c1', 'outcome', 'inactive'),
  ('CC1=C(/C=C/C(C)=C/C=C/C(C)=C/C(=O)O)C(C)(C)CCC1', 'outcome', 'inactive'),
  ('Cc1c(N(C)C)c(=O)n(-c2ccccc2)n1C', 'outcome', 'inactive');

input: Using the record for CC(=O)Oc1ccccc1C(=O)O , state its measured outcome.
output: inactive

* * *

Assay: qHTS assay to test for compound auto fluorescence at 590 nm (red) in HepG2 cells (AID 720674)
Details: HepG2 autofluorescence, red 540/590 nm, 1 h; series mostly up to 91.3 µM
From the text: U.S. Tox21 Program National Center for Advancing Translational Sciences [NCATS] NIH Chemical Genomics Center [NCGC] U.S. Environmental Protection Agency [EPA] National Institutes of Environmental Health Sciences [NIEHS] National Toxicology Program [NTP] U.S. Food and Drug Administration [FDA] Tox21 Assay Overview: Compound auto fluorescence often interferes with screening of the compound library against various biological targets and signaling pathways. […] This assay includes the red fluorescence data. […]
Calls of active or inactive are those of the source. Calls come from the whole dose curve; as a rule, active = well fitted curve in the direction sought with a large enough effect in the repeat runs; inconclusive = weak or mixed curves; inactive = flat fitted curve, though single readings scatter.
property: outcome

INSERT INTO results (compound, property, assay_result) VALUES
  ('COC1=CC(=O)C[C@@H](C)[C@]12Oc1c(Cl)c(OC)cc(OC)c1C2=O', 'outcome', 'inactive'),
  ('NC(=O)N1c2ccccc2C=Cc2ccccc21', 'outcome', 'inactive'),
  ('NC(=O)NO', 'outcome', 'inactive'),
  ('CCCCOC(=O)CCCCCCCCC(=O)OCCCC', 'outcome', 'inactive'),
  ('CCCCCCCCCCCCCCCCCC(=O)OCC(O)CO (centres undefined)', 'outcome', 'inactive');

input: Given the compound CCOC(=O)C(C)(C)Oc1ccc(Cl)cc1 , write its reported outcome.
output: inactive

* * *

Molecular target: Aryl hydrocarbon receptor (Homo sapiens) (UniProt P35869)
Sequence (P35869 whole entry, looked up): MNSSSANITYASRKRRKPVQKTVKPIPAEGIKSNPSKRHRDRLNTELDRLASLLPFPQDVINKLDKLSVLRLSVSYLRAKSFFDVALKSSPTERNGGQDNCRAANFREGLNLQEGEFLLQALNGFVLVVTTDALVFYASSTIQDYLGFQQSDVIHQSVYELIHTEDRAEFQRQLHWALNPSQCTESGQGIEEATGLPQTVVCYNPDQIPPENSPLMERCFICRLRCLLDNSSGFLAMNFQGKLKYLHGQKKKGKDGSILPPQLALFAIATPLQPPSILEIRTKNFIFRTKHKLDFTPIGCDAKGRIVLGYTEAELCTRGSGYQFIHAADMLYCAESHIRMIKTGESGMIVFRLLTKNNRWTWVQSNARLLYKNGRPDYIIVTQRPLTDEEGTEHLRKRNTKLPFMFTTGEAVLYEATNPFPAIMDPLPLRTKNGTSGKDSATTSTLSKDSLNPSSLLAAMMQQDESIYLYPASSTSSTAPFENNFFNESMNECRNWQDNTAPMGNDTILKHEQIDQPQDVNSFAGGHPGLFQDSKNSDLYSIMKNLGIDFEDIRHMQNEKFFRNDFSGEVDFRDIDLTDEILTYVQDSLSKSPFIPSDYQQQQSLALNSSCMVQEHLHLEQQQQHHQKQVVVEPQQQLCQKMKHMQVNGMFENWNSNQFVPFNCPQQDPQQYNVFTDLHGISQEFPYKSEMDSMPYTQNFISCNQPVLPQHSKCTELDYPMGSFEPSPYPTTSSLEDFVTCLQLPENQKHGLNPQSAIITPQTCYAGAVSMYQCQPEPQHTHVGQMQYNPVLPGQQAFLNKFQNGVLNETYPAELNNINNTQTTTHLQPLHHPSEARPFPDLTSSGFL
Assay: qHTS assay to identify small molecule that activate the aryl hydrocarbon receptor (AhR) signaling pathway (AID 743085);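 note: HG2L7.5c1 human HepG2 liver cells with stably integrated DRE-driven firefly reporter; nearly all actives have a fitted effect of over 15% in size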
Details: HepG2 AhR-luc (HG2L7.5c1), luciferase, 24 h; series mostly up to 70.3 µM
From the text: U.S. Tox21 Program National Center for Advancing Translational Sciences [NCATS] NIH Chemical Genomics Center [NCGC] U.S. Environmental Protection Agency [EPA] National Institutes of Environmental Health Sciences [NIEHS] National Toxicology Program [NTP] U.S. Food and Drug Administration [FDA] Tox21 Assay overview: The Aryl hydrocarbon Receptor (AhR), a member of the family of basic helix-loop-helix transcription factors, is crucial to adaptive responses to environmental changes. […]
Results filed as inconclusive are left out. Calls of active or inactive are those of the source. Calls come from the whole dose curve; as a rule, active = well fitted activation curve with a large enough effect in the repeat runs; inconclusive = weak or mixed curves; inactive = no such curve, though single readings can be large or run the other way.
property: outcome

Worked cases, answers included:
INSERT INTO measurements (molecule, assay_result) VALUES
  ('CC(=O)OC/C=C(C)/C=C/C=C(C)/C=C/C1=C(C)CCCC1(C)C', 'inactive'),
  ('C1CNCCN1', 'inactive'),
  ('CCCCC/C(C=O)=C\c1ccccc1', 'inactive'),
  ('CCCCCCCCCCCCCCCCCC(=O)OCC(O)CO (stereo unspecified)', 'inactive'),
  ('CCN(CC)CCOC(=O)c1ccc(N)cc1', 'inactive');

input: # return recorded outcome for entry CN(C)C=O
output: inactive

input: Give outcome for COC(=O)c1ccc(C=O)cc1
output: inactive

input: Note outcome for the molecule shown: CC(C)(C)NCC(O)c1ccc(O)c(CO)c1 (stereo unspecified)
output: inactive

input: Report outcome for C#C[C@]1(O)CC[C@H]2[C@@H]3CCC4=CC(=O)CC[C@@H]4[C@H]3CC[C@@]21CC
output: inactive

* * *

Test: qHTS assay to identify small molecule antagonists of the thyroid receptor (TR) signaling pathway (AID 743065); note: nearly all actives have a fitted effect of over 55% in size
Conditions: GH3.TRE-Luc, T3-stimulated luciferase inhibition, 23.5 h; series mostly up to 70.3 µM
Source text: U.S. Tox21 Program National Center for Advancing Translational Sciences [NCATS] NIH Chemical Genomics Center [NCGC] U.S. Environmental Protection Agency [EPA] National Institutes of Environmental Health Sciences [NIEHS] National Toxicology Program [NTP] U.S. Food and Drug Administration [FDA] Tox21 Assay Overview: Thyroid receptor (TR), a nuclear hormone receptor, plays an important role in development, proliferation, differentiation, metabolism, brain function, and cardiovascular system. […]
Results filed as inconclusive are left out. The source made the active and inactive calls. Calls come from the whole dose curve; as a rule, active = well fitted inhibition curve with a large enough effect in the repeat runs; inconclusive = weak or mixed curves; inactive = no such curve, though single readings can be large or run the other way.
API: response.call in t = active, f = inactive

INSERT INTO measurements (molecule, classification) VALUES
  ('CO[C@H]1C=CO[C@@]2(C)Oc3c(C)c(O)c4c(O)c(c(/C=N/N5CCN(C)CC5)c(O)c4c3C2=O)NC(=O)/C(C)=C\C=C[C@H](C)[C@H](O)[C@@H](C)[C@@H](O)[C@@H](C)[C@H](OC(C)=O)[C@@H]1C', 'f'),
  ('Cc1c(N(C)C)c(=O)n(-c2ccccc2)n1C', 'f'),
  ('CCn1cc(C(=O)O)c(=O)c2ccc(C)nc21', 'f'),
  ('Cc1cccc(Nc2cc(Cl)nc(SCC(=O)O)n2)c1C', 'f'),
  ('CCOCCO', 'f'),
  ('COC(=O)c1ccc(O)cc1', 'f');

input: Tell me the assay call for CCCCCCCCOc1ccc(C(=O)c2ccccc2)c(O)c1 please.
output: f

input: Hi, sorry to bother you, what did the test record for CCCCOCCOCCOC(C)=O ?
output: f

input: Record lookup: outcome of this test for CC(=O)/C=C/C1=C(C)CCCC1(C)C ?
output: f

input: Would you mind telling me which call this test gave COC(=O)c1ccc(C=O)cc1 ?
output: f

input: How was Cc1cnc(NC(=O)C2=C(O)c3ccccc3S(=O)(=O)N2C)s1 classified in this test?
output: f

* * *

experiment: qHTS RealTime-Glo MT Cell Viability Assay in HepG2 cells - 16 hour (AID 1224885); settings: RealTime-Glo luminescence; series mostly up to 76.8 µM; note: nearly all actives have a fitted effect of over 50% in size
Records with an inconclusive call do not appear. Activity calls are given as the source filed them. Calls follow the shape of the dose curve; as a rule, active = well fitted cell-killing curve with a large enough effect in the repeat runs; inconclusive = weak or mixed curves; inactive = flat fitted curve, though single readings scatter.
property: outcome

Example compounds with recorded outcome:
INSERT INTO results (compound, assay_result) VALUES
  ('CCn1cc(C(=O)O)c(=O)c2ccc(C)nc21', 'inactive'),
  ('Cc1c(N(C)C)c(=O)n(-c2ccccc2)n1C', 'inactive'),
  ('COc1cc(O)c(C(=O)c2ccccc2)cc1S(=O)(=O)O', 'inactive'),
  ('OC[C@@H](O)[C@@H](O)[C@H](O)[C@H](O)CO', 'inactive'),
  ('CC(=O)OC/C=C(C)/C=C/C=C(C)/C=C/C1=C(C)CCCC1(C)C', 'inactive');

input: Give reported outcome value for CC(C)(C)NCC(O)c1ccc(O)c(CO)c1 (configuration not stated)
output: inactive

input: Given the compound Nc1cccc(N)c1 , write its reported outcome.
output: inactive

input: Respond only with outcome recorded for CCCCC/C(C=O)=C\c1ccccc1
output: inactive

input: Please look at this compound and report its outcome: C=CC(=O)NC(C)(C)CS(=O)(=O)O
output: inactive

input: Quote outcome reported for N[C@@H](Cc1c[nH]c2ccc(O)cc12)C(=O)O please.
output: inactive

input: Look up and report measured outcome for this entry: CC(=O)Oc1ccccc1C(=O)O
output: inactive

input: Quickly give me recorded outcome for COc1ccc(O)cc1
output: inactive

input: Using the record for CC1(C)O[C@@H]2[C@@H](CO[C@@]3(COS(N)(=O)=O)OC(C)(C)O[C@@H]23)O1 , state its measured outcome.
output: inactive

* * *

Target: Cytochrome P450 1A2 (Homo sapiens)
Assay: Cytochrome P450 Family 1 Subfamily A Member 2 (CYP1A2) small molecule antagonists: luciferase reporter qHTS assay (AID 1671199); note: nearly all actives have a fitted effect of over 50% in size
Conditions: P450-Glo CYP1A2 enzyme, luciferin luminescence, 1 h; series mostly up to 115 µM
Source text: National Center for Advancing Translational Sciences [NCATS] U.S. Environmental Protection Agency [EPA] National Institutes of Environmental Health Sciences [NIEHS] National Toxicology Program [NTP] U.S. Food and Drug Administration [FDA] Cytochrome P450 (CYP) enzymes are membrane-bound hemeproteins that play a key role in metabolism of drugs and xenobiotics. […] The luciferin products formed are detected with a luciferin detection reagent, and the amount of light produced is proportional to CYP activity. […]
Records with an inconclusive call do not appear. Active and inactive are the calls of the source. Calls come from the whole dose curve; as a rule, active = well fitted inhibition curve with a large enough effect in the repeat runs; inconclusive = weak or mixed curves; inactive = no such curve, though single readings can be large or run the other way.
API: response.call in active, inactive

input: Which outcome did this test record for the compound Cc1cnc(NC(=O)C2=C(O)c3ccccc3S(=O)(=O)N2C)s1 ?
output: inactive

input: Please state the recorded outcome for this compound: O=C(O)CCCCC1CCSS1 (stereo not given)
output: inactive

input: Fill in: this test's call for COCC(C)N (stereo not given) is ___
output: active

input: Check the results log: what was the call for CCOCCO ?
output: inactive

input: Called result for NC(=O)c1ccc([N+](=O)[O-])cc1Cl
output: inactive
